TEST_TARGET: β 5i (chymotrypsin-like activity) (Homo sapiens, UniProt P20618+P28062)
Construct: protease activity associated with the proteasome complex in cultured cells; endogenous in cells
PROTOCOL: Cell-Based Proteasome subunit activity/selectivity assay, β5i, substrate (ANW)2Rh110
APPLIED_CONDITIONS: Ramos cells; substrate (ANW)2Rh110 (β5i); highest concentration tested 20 μM; read-out: Ic50:ramos:ac-(anw)2-r110
pIC50: −log10 of the molar value.
Class Yes: pIC50 at least 6. Class No: pIC50 below 6.

# example entries with known answers
{"COMPOUND": "N#CC(NC(=O)c1cn(CCNC(=O)c2ccc(C(F)(F)F)cc2F)nn1)c1ccc(C2CC2)cc1 (stereo not shown) [Example 76]", "GROUP": "Yes"}
{"COMPOUND": "COc1ccc(C(=O)CNC(=O)c2cn(CCNC(=O)c3ccc(OC)c(OC)c3OC)nn2)cc1 [Example 77]", "GROUP": "No"}
{"COMPOUND": "COc1ccc(C(=O)NCCn2cc(C(=O)NC(C#N)c3ccc(SC)cc3)nn2)c(OC)c1OC (stereo not shown) [Example 2]", "GROUP": "Yes"}

Qu. Answer whether pIC50 of CCc1ccc(C(C#N)NC(=O)c2cn(CCNC(=O)c3cccc4c3OCCO4)nn2)cc1 (stereo not shown) [Example 18] is greater than or equal to 6.
Ans. Yes

Qu. State whether the measured pIC50 reaches 6, counting equality as reaching it, for CCc1ccc(C(C#N)NC(=O)c2cn(CCNC(=O)c3ccc(OC)c(OC)c3OC)nn2)cc1 (single isomer, unassigned) [Example 51]
Ans. Yes

Qu. Quick check: does N#CC(NC(=O)c1cn(CCNC(=O)c2ccc(C(F)(F)F)cc2F)nn1)c1ccc(C(F)(F)F)cc1 (stereo not shown) [Example 73] have pIC50 greater than or equal to 6?
Ans. Yes

Qu. Identify whether the reported pIC50 of the following compound is 6 or greater: COc1ccc(C(C#N)NC(=O)c2cn(CCNC(=O)c3ccc(OC)c(OC)c3OC)nn2)cc1 (stereo not shown) [Example 8]
Ans. Yes

Qu. Given the entry CCc1ccc(C(C#N)NC(=O)c2cn(CCNC(=O)c3ccccc3COC)nn2)cc1 (stereo not shown) [Example 33] , answer whether its pIC50 meets or surpasses 6.
Ans. No

Qu. Check the entry CCc1ccc(C(C#N)NC(=O)c2cn(CCNC(=O)c3ccc(OC(F)(F)F)cc3OC)nn2)cc1 (stereo not shown) [Example 11] : does pIC50 equal or exceed 6?
Ans. Yes

Qu. Is pIC50 at least 6? Consider COc1ccc(C(=O)NCCn2cc(C(=O)NC(C#N)c3ccc(OCc4ccccc4)cc3)nn2)c(OC)c1OC (stereo not shown) [Example 56]
Ans. No

Qu. Quick check: does CCc1ccc(C(C#N)NC(=O)c2cn(CC/N=C(\SC)c3ccc(OC)c(OC)c3OC)nn2)cc1 (stereo not shown) [Example 87] have pIC50 greater than or equal to 6?
Ans. No

Ref: patent US20150299143A1
